Reference for the values: the supplement of paper PMC10702517

Assay: chemical recovery into PDMS from spiked human plasma; higher = better extraction
Settings: pooled human plasma; extraction method: PES with PDMS; equilibration time (d): 6
The entries below come with measured chemical recovery into PDMS values attached.
Please give a number only; it is taken to be in %.

Consider the reported chemical recovery into PDMS for these compounds:
- compound: "CC(C)OC(=O)C(C)(C)Oc1ccc(C(=O)c2ccc(Cl)cc2)cc1 [Fenofibrate]"
  property_name: "chemical recovery into PDMS"
  reported_measurement: 48
- compound: "COCC(C)N(C(=O)CCl)c1c(C)csc1C (stereo not given) [Dimethenamid]"
  property_name: "chemical recovery into PDMS"
  reported_measurement: 44.9
- compound: "c1ccc(Nc2cccc3ccccc23)cc1 [N-Phenyl-1-naphthylamine]"
  property_name: "chemical recovery into PDMS"
  reported_measurement: 6.6
- compound: "CC[C@H]1CCC[C@H](O[C@H]2CC[C@H](N(C)C)[C@@H](C)O2)[C@@H](C)C(=O)C2=C[C@@H]3[C@@H](C=C[C@@H]4C[C@@H](O[C@@H]5O[C@@H](C)[C@H](OC)[C@@H](OC)[C@H]5OC)C[C@@H]34)[C@@H]2CC(=O)O1 [Spinosyn A]"
  property_name: "chemical recovery into PDMS"
  reported_measurement: 0.00695

Input line: Form field: reported chemical recovery into PDMS of CCNc1nc(NCC)nc(SC)n1 [Simetryn]
Output line: 28.9

* * *

Test: chemical recovery into PDMS from spiked human plasma; higher = better extraction
Conditions: pooled human plasma; extraction method: PES with PDMS; equilibration time (d): 6
property_name: chemical recovery into PDMS (%)
Please give a number only; it is taken to be in %.

Consider the reported chemical recovery into PDMS for these molecules:
- molecule: "O=C1Nc2ccc(Cl)cc2C(c2ccccc2Cl)=NC1O (centres undefined)"
  reported_measurement: 9.18
- molecule: "O=C1CCCC=CCCCCCCCCCC1"
  reported_measurement: 40.2
- molecule: "NC(=O)c1ccc(N)cc1 [4-Aminobenzamide]"
  reported_measurement: 0.572
- molecule: "Fc1ccc([C@@H]2CCNC[C@H]2COc2ccc3c(c2)OCO3)cc1"
  reported_measurement: 0.637
- molecule: "C[Si](Cn1cncn1)(c1ccc(F)cc1)c1ccc(F)cc1"
  reported_measurement: 43.1

Input line: Form field: reported chemical recovery into PDMS of "C#C[C@]1(O)CC[C@H]2[C@@H]3CCC4=CC(=O)CC[C@@H]4[C@H]3CC[C@@]21C"
Output line: 47.6

Input line: Form field: reported chemical recovery into PDMS of "CC(C)c1ccc(NC(=O)N(C)C)cc1"
Output line: 40.4

Input line: Form field: reported chemical recovery into PDMS of CCNS(=O)(=O)c1ccccc1C [N-Ethyl-o-toluenesulfonamide]
Output line: 26.3

Input line: Form field: reported chemical recovery into PDMS of "C[C@]12C=CC(=O)C=C1CC[C@@H]1[C@@H]2C(=O)C[C@@]2(C)[C@H]1CC[C@]2(O)C(=O)CO"
Output line: 0.265

Input line: Form field: reported chemical recovery into PDMS of "c1cc2ccc3cccc4ccc(c1)c2c34"
Output line: 77.8

Input line: Form field: reported chemical recovery into PDMS of "Clc1cc(Cl)c(-c2cc(Cl)c(Cl)cc2Cl)cc1Cl"
Output line: 82.2

Input line: Form field: reported chemical recovery into PDMS of CCCCc1c(C)nc(NCC)nc1OS(=O)(=O)N(C)C [Bupirimate]
Output line: 41.4

Input line: Form field: reported chemical recovery into PDMS of CCC(=O)O[C@]1(C(=O)SCF)[C@H](C)C[C@H]2[C@@H]3C[C@H](F)C4=CC(=O)C=C[C@]4(C)[C@@]3(F)[C@@H](O)C[C@@]21C [Fluticasone propionate]
Output line: 41.3

Input line: Form field: reported chemical recovery into PDMS of Nc1ccc2c(n1)[nH]c1ccccc12 [2-Amino-9H-pyrido[2,3-b]indole (AalphaC)]
Output line: 5.65

Input line: Form field: reported chemical recovery into PDMS of "Cc1ccccc1N"
Output line: 0.369

Input line: Form field: reported chemical recovery into PDMS of CC(=O)c1cc2c(cc1C)C(C)(C)C(C)C2(C)C (centres undefined) [Phantolide]
Output line: 34.1

Input line: Form field: reported chemical recovery into PDMS of "Nc1ccccc1Br"
Output line: 5.91

Input line: Form field: reported chemical recovery into PDMS of "Cl[C@H]1[C@H](Cl)[C@@H](Cl)[C@@H](Cl)[C@H](Cl)[C@H]1Cl"
Output line: 58.6

Input line: Form field: reported chemical recovery into PDMS of "CC(C)(C)c1ccc(C(=O)CCCN2CCC(OC(c3ccccc3)c3ccccc3)CC2)cc1"
Output line: 0.469
